Assay: protein stability index of a GFP-peptide fusion (yeast GPS) (PSI 1-4); higher = more stable; sorted into four equal gates, so the index is relative within each strain
Settings: ubr1∆
# protein stability index annotations

Check out these entries, answers already filled in.
KASELKLALGIALEGYR [RPN2]    2.56
KSAEGNNIDQSLILKES [YAR002W/NUP60]    3
EKVILVQEQLSKNRIIV [RET1]    1.37
EGAARGTSVYLVDKRID [DIS3]    3.08
KLASTLEKISSSNKDLE [SMC4]    2.82
YKQAMNETSEQLVPIRL [SNF5]    3.43
LQIVNQLPANMVHLYSI [RPC17]    1.79
VKKVQLGKKGVPYVVTH [RPS4A]    2.04
SEAKRTKFSNPAIPPVI [BRR2]    2.44
DFQPTELFDILSTSEDV [IRR1]    3.08

Query: Query (sequence): LNSFVNDIFERIATEAS [HTB1] ; field requested: protein stability index
Reply: 2.96

Query: Another sequence to look at: VKEESQPDENTKEMDEV [SWI3]
Reply: 3.03

Query: Another sequence to look at: NIPKPLNSYHIKNGRIY [RGR1]
Reply: 2.14

Query: Another sequence to look at: PVIDTQIANEFNTQQGI [YDL116W/NUP84]
Reply: 2.95

###

Experiment: protein stability index of a GFP-peptide fusion (yeast GPS) (PSI 1-4); higher = more stable; sorted into four equal gates, so the index is relative within each strain
Conditions: pdr5∆
Decide using protein stability index: a value greater than or equal to 3 is met, a smaller one is not met.

Previously resolved entries follow.
EPTVRIQAVFCLTKFQD [YCG1]    not met
VRVQRQKKILSIRLKVP [RPL8A]    not met
EGVEYLREYLNLPEHIV [RPS10A]    met

Consider now this further sequence.
Query: Say whether YDLNFKLRETLVKIDDL [SMC1] shows protein stability index of 3 or more.
Reply: met

###

Test: protein stability index of a GFP-peptide fusion (yeast GPS) (PSI 1-4); higher = more stable; sorted into four equal gates, so the index is relative within each strain
Conditions: ubr1∆
# protein stability index annotations
Answer with a bare number; do not write a unit.

Check out these entries, answers already filled in.
VNDEEEHKQLVAEIVQN [RPC82]    1.66
INYQVDSKLLPKNIEPP [SWI3]    2.65
ILEDTATMSVFLQRIDF [RRI2]    2.59
ADNSGARNLYIIAVKGS [RPL23A]    1.53

Query: Query (sequence): TKIPQIGDKFASRHGQK [RPB2] ; field requested: protein stability index
Reply: 1.83

Query: Another sequence to look at: QSSESFDDSDITKFALF [YML103C/NUP188]
Reply: 2.46

###

# protein stability index annotations
Test: protein stability index of a GFP-peptide fusion (yeast GPS) (PSI 1-4); higher = more stable; sorted into four equal gates, so the index is relative within each strain
Conditions: doa10∆
Answer with a bare number; do not write a unit.

SEAKRTKFSNPAIPPVI [BRR2]    2.13
RKKARTFDSSWNWAKQS [FAS2]    1.79
VVIDAFRLIDTGALINN [RPN11]    1.27
DDDQIESLKKSPIFEVL [ARP9]    3.16
LRKLKKMNNKPERFMVF [RPC53]    3.19
LWLKKVMEEEEQDCKCI [POP8]    2.63
NPLIELTPIQKKIMDET [ITC1]    2.67
VYYSKRGFKVGLVCADT [SRP54]    2.41
ASVYPEYALPKTYNKLH [RPS26A]    2.92
SFSFGAPESMKSTASTA [YOR098C/NUP1]    3.07

Query: Query (sequence): ALQKGLKDLMDLCDVVE [RPC19] ; field requested: protein stability index
Reply: 3.44

Query: Another sequence to look at: MSKITSSQVREHVKELL [RPL1A]
Reply: 1.59
